Form field: inhibition (one value per entry).
Biological target: Glucose transporter (Leishmania mexicana) (UniProt O61059)
Test: ST_JUDE_LEISH: Cytotoxicity at 2uM final concentration against transgenic Leishmania Mexicana promastigotes LmGT2 that are glucose transport deficient and complemented with the L. Mexicana glucose transporter 2. Activity is measured by DNA content using SYBR green in vitro
Type: functional
Dear colleague, please return just the value in %, with no unit written.

                                   molecule  observed_result
0  O=C(Nc1ccc(C(F)(F)F)cc1)c1ccc(S(=O)(=O)NC2CCN(Cc3ccccc3)C2)cc1 (stereo unspecified)             2.71

Tell me the measured inhibition of COc1ccc2c(NN=Cc3cccc(F)c3)ccnc2c1 , please.
4.14

Would you mind telling me what inhibition value was observed for CCN(CC)CCCNc1nccc(N2CCc3ncnc(Nc4ccc(OCc5cccc(F)c5)c(Cl)c4)c3C2)n1 ?
7.87

Please look up its inhibition: CNCCNCc1ccc(-c2ccc(-c3nc4cc(F)ccc4[nH]3)cc2)cc1
0.13

Record request: inhibition value, item Cc1cc(C)c(S(=O)(=O)N2CCCCC(c3cccc(C(F)(F)F)c3)=N2)c(C)c1
1.47

# inhibition lookup, item Cc1cc(CNC(=O)c2ccc(-c3ccc(-c4nc5cc(C(F)(F)F)ccc5[nH]4)s3)cc2)on1
1.12

Source: ChEMBL document CHEMBL3433997
